Test system: A549 NSCLC
Experiment: NCI tumour cell line growth inhibition, 48 h
// values below are reported GI50

{"CPD_SMILES": "COc1ccc2c(c1)c(-c1cc(N)n3nc(-c4c[nH]c5ccccc45)cc3n1)cn2C", "GI50": "1.86 µM"}
{"CPD_SMILES": "S=C(NCCc1ccccc1)Nc1ccc(OCc2nc3ccc(Cl)cc3[nH]2)cc1", "GI50": "12.6 µM"}
{"CPD_SMILES": "CC(=O)N1CCN(Cc2ccc3c(NNC(=O)c4cnccn4)nc4cc(F)ccc4n23)CC1", "GI50": "0.596 µM"}
{"CPD_SMILES": "Clc1cccc(N/N=C/c2c[nH]c3ccc(Br)cc23)n1", "GI50": "11.7 µM"}

Query: Give GI50 for "CCCCCc1ccc(S(=O)(=O)N(C(C)=O)c2cc(-c3csc(N(C)C(C)=O)n3)ccc2N2CCN(C)CC2)cc1"
Result: 6.37 µM

====

System: SK-MEL-5 melanoma
Assay: NCI tumour cell line growth inhibition, 48 h
// values below are reported GI50

{"CPD_SMILES": "CC(=O)N1CCN(Cc2ccc3c(NNC(=O)c4cnccn4)nc4cc(F)ccc4n23)CC1", "GI50": "0.605 µM"}
{"CPD_SMILES": "S=C(NCCc1ccccc1)Nc1ccc(OCc2nc3ccc(Cl)cc3[nH]2)cc1", "GI50": "12.7 µM"}
{"CPD_SMILES": "CCCCCc1ccc(S(=O)(=O)N(C(C)=O)c2cc(-c3csc(N(C)C(C)=O)n3)ccc2N2CCN(C)CC2)cc1", "GI50": "7.04 µM"}

Continue with the compound presented below.
Query: Report value: GI50, system: SK-MEL-5 melanoma, compound: "CCCCSc1nc(Nc2ccc(/C(C)=N/NC(N)=S)cc2)c(C#N)c(-c2ccc(OC)cc2)n1"
Result: 3.61 µM

====

Test system: MDA-MB-468 breast
Test: NCI tumour cell line growth inhibition, 48 h
MEASURED_PROPERTY: GI50

Example entries begin here.
{"MOLECULE": "COC(=O)C(C(=O)OC)C(Br)C(Br)C(Br)c1ccccc1 (stereo not given)", "GI50": "2060 nM"}
{"MOLECULE": "Cn1cc(C2=C(Nc3ccccc3)C(=O)NC2=O)c2ccccc21", "GI50": "> 23000 nM"}
{"MOLECULE": "S=C(NCCc1ccccc1)Nc1ccc(OCc2nc3ccc(Cl)cc3[nH]2)cc1", "GI50": "3780 nM"}
{"MOLECULE": "COc1cc(C)c2sc3ccccc3c(=O)c2c1NCCN(C)C", "GI50": "2150 nM"}
{"MOLECULE": "CC(C)(C)OC(=O)NCc1cccc(N=C=S)c1", "GI50": "14800 nM"}
{"MOLECULE": "Cc1nc2ccccc2nc1N=Nc1ccccc1", "GI50": "21000 nM"}

Query: Give GI50 for "CC(=O)/C=C/c1ccc(OCc2ccc(Cl)cc2)cc1"
Result: 161000 nM

Query: Give GI50 for "CCCCCCCCCCCCCC[n+]1ccc(C)cc1"
Result: 207 nM

Query: Give GI50 for "CN(CCC(=O)/C(=C\c1ccccc1)c1ccc(Cl)cc1)Cc1ccccc1"
Result: 2140 nM

Query: Give GI50 for "O=C(N/N=C/c1cccs1)c1[nH]c2ccc(Br)cc2c1-c1ccccc1"
Result: 88.1 nM
